tested.system: Phospholipase A2 alpha (Crotalus adamanteus, UniProt P00623)
Sequence (P00623 whole entry): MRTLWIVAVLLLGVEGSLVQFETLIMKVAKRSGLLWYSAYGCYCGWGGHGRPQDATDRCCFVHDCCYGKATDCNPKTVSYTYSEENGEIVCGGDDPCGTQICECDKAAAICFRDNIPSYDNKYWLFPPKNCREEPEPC
value.type: pIC50
// scale note: pIC50 = -log10(conc_M); give the bare number

CC1=C(CC/C(C)=C/CCC2=CC[C@H](C3=CC(=O)O[C@H]3O)O[C@H]2O)C(C)(C)CCC1 [MANOALIDE]
6.40

Could you now consider this next molecule?
The recorded pIC50 for entry "O=C(c1c[nH]c2ccc(O)cc12)c1nccc2c1[nH]c1ccc(O)cc12" equals 4.85

Origin of values: ChEMBL document CHEMBL1158119
